Origin of values: ChEMBL document CHEMBL1122937

Assay: pKa value was evaluated
Type: physicochemical
quantity-measured: pKa

>>> assay_value("CCOC(=O)COc1ccc(C(=O)c2ccc(O)c(CN)c2)c(Cl)c1Cl.Cl")
6.38
>>> assay_value("CCOC(=O)COc1ccc(C(=O)c2ccc(O)c(CN)c2)cc1")
7.34
>>> assay_value("CCOC(=O)COc1ccc(Cc2ccc(O)c(CN)c2)c(Cl)c1Cl.Cl")
8.73
>>> assay_value("CCOC(=O)COc1ccc(Oc2ccc(O)c(CN)c2)c(Cl)c1Cl.Cl")
8.55
>>> assay_value("CCOC(=O)COc1ccc(S(=O)(=O)c2ccc(O)c(CN)c2)c(Cl)c1Cl")
6.67

====

Test: Distribution coefficient in octanol-pH 7.0 phosphate buffer was measured at room temperature
Assay type: physicochemical
quantity-measured: logD

For orientation, consider the following solved cases.
>>> assay_value("CCOC(=O)COc1ccc(C(=O)c2ccc(O)c(CN)c2)c(Cl)c1Cl.Cl")
1.41
>>> assay_value("CCOC(=O)COc1ccc(S(=O)(=O)c2ccc(O)c(CN)c2)c(Cl)c1Cl")
1.25
>>> assay_value("CCOC(=O)COc1ccc(Oc2ccc(O)c(CN)c2)c(Cl)c1Cl.Cl")
1.82

A: CCOC(=O)COc1ccc(Cc2ccc(O)c(CN)c2)c(Cl)c1Cl.Cl
B: CCOC(=O)COc1ccc(C(=O)c2ccc(O)c(CN)c2)cc1
**Q:** From the recorded data, which exceeds the other in logD: A or B ? Mark your answer with the label of the selected entry.
**A:** A
